- test_system: T1, human neonatal Fc receptor (hFcRn) (human, UniProt P55899 24-290; P61769 21-119)
- T1 construct: Biotinylated in the ELISA, Octet and yeast assays; also called human FcRn; huFcRn
- T1 sequence (P55899 24-290 limits assumed, chain 1 of 2): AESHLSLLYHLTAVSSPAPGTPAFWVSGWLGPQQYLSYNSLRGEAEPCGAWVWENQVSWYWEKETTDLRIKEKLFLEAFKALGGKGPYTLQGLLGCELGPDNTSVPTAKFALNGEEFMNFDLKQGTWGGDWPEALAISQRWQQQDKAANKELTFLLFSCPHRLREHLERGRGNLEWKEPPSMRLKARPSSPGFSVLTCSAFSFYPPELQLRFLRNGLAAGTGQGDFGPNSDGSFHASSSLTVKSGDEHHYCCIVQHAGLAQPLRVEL
- T1 sequence (P61769 21-119 limits assumed, chain 2 of 2): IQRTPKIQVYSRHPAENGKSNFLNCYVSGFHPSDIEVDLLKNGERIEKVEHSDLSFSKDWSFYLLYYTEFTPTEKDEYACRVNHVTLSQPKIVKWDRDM
- test_description: phage ELISA pH 7.4;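 further: higher score means stronger binding and above about 3 to 5 exceeds background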
The reader will find reported ELISA score values listed item by item below.
Answer with a bare number; do not write a unit.

| binder | measurement |
| --- | --- |
| L5 isolate with insertion SEQ ID NO: 446 (other) EPKSCDKTHTCPPCPAPELLGGPSVFLFPPKPKDTLMISRTPEVTCVVVDVSHEDPEVKFNWYVDGVEVHNAKTKPREEQYNSTYRVVSVLTVLHQDWLNGKEYKCKVSNKALPAPIEKTISKAKGQPREPQVYTLPPSRDELTKNQVSLTCLVKGFYPSDIAVEWESNGGCMHNEEFCGGGQPENNYKTTPPVLDSDGSFFLYSKLTVDKSRWQQGNVFSCSVMHEALHNHYTQKSLSLSPGK | 0.4 |

Now consider a different binder.
Measured ELISA score of L5 isolate with insertion SEQ ID NO: 453 (other) EPKSCDKTHTCPPCPAPELLGGPSVFLFPPKPKDTLMISRTPEVTCVVVDVSHEDPEVKFNWYVDGVEVHNAKTKPREEQYNSTYRVVSVLTVLHQDWLNGKEYKCKVSNKALPAPIEKTISKAKGQPREPQVYTLPPSRDELTKNQVSLTCLVKGFYPSDIAVEWESNGGCVHNDKLCGGGQPENNYKTTPPVLDSDGSFFLYSKLTVDKSRWQQGNVFSCSVMHEALHNHYTQKSLSLSPGK : 0.4
